Measured ΔTm by item
- Test system: 5′-FAM-AT11-L0-TAMRA-3′ (DNA, G4) TGGTGGTGGTTGTTGGGTGGTGGTGGT
- assay_name: FRET melting
- recorded_conditions: 65 mM KCl, 20 mM potassium phosphate; pH 6.9; 0.2 µM DNA; 1 µM compound (5 eq)
measured_endpoint: ΔTm (°C)

[[record]]
structure_string = "CN(C)c1ccc2cc3ccc(N(C)C)cc3[n+](CCCCCCCCNC(=O)c3ccc(I)cc3)c2c1"
bound_sign = "="
quantitative_readout = 19.6

[[record]]
structure_string = "C[n+]1cc(NC(=O)c2ccc3ccc4ccc(C(=O)Nc5cc6ccccc6[n+](C)c5)nc4c3n2)cc2ccccc21"
bound_sign = ">"
quantitative_readout = 30

[[record]]
structure_string = "C[n+]1ccc(-c2c3nc(c(-c4cc[n+](C)cc4)c4ccc([nH]4)c(-c4cc[n+](C)cc4)c4nc(c(-c5cc[n+](C)cc5)c5ccc2[nH]5)C=C4)C=C3)cc1"
bound_sign = "="
quantitative_readout = 28

[[record]]
structure_string = "CN(C)c1ccc(Nc2c3ccc(NC(=O)CCN4CCCC4)cc3nc3cc(NC(=O)CCN4CCCC4)ccc23)cc1"
bound_sign = "="
quantitative_readout = 20.3

[[record]]
structure_string = "NCCOc1cc(C(=O)Nc2cc(OCCN)c3ccccc3n2)nc(C(=O)Nc2cc(OCCN)c3ccccc3n2)c1"
bound_sign = "="
quantitative_readout = 26.9

